System: 931267-113-T-J1-PDC multicell spheroid viability
Assay: Anticancer human tumor 931267-113-T-J1-PDC patient-derived colon adenocarcinoma cell line growth inhibition [PI3K]
Settings: curve of compound
Source text: Combinatorial screen of targeted agents with the PI3K inhibitors inavolisib, alpelisib, duvelisib, and copanlisib in multi-cell type tumor spheroids A high-throughput screen of multi-cell type tumor spheroids was designed to identify active combinations of targeted small molecules and PI3K pathway inhibitors. […] Compounds. […] If the clinical Cmax for an agent had not been determined, the highest concentration tested was 10 microM. […]
assay_readout: IC50

>>> recorded_result("C#Cc1c(F)ccc2cc(O)cc(-c3ncc4c(N5CC6CCC(C5)N6)nc(OCC56CCCN5CC(F)C6)nc4c3F)c12 (centres undefined)")
"670 nM [middle of 4 runs]"
>>> recorded_result("C[C@@H](NC(=O)c1ncnc(N)c1Cl)c1ncc(C(=O)Nc2cc(C(F)(F)F)c(Cl)cn2)s1")
"> 10 µM"
>>> recorded_result("C=CC(=O)N1CCN(c2nc(=O)n(-c3c(C)ccnc3C(C)C)c3nc(-c4c(O)cccc4F)c(F)cc23)C(C)C1 (centres undefined)")
"> 10 µM"
>>> recorded_result("CC(Cn1ccc(-c2ccc(C#N)c(Cl)c2)n1)NC(=O)c1cc(C(C)O)[nH]n1 (centres undefined)")
"> 10 µM"
>>> recorded_result("CNC(=O)c1ccc(N2C(=S)N(c3ccc(C#N)c(C(F)(F)F)c3)C(=O)C2(C)C)cc1F")
"> 10 µM"
>>> recorded_result("Cn1ncc(Cl)c1-c1cc(C(=O)NC(CN)Cc2cccc(F)c2)sc1Cl (centres undefined)")
"7.22 µM [middle of 4 runs]"
>>> recorded_result("CC(=O)c1c(C)c2cnc(Nc3ccc(N4CCNCC4)cn3)nc2n(C2CCCC2)c1=O")
"> 0.1 µM"
>>> recorded_result("CC(C)NCC(C(=O)N1CCN(c2ncnc3c2C(C)CC3O)CC1)c1ccc(Cl)cc1 (centres undefined)")
"> 10 µM"
>>> recorded_result("CCCS(=O)(=O)Nc1ccc(F)c(C(=O)c2c[nH]c3ncc(-c4ccc(Cl)cc4)cc23)c1F")
"6.15 µM [middle of 4 runs]"

----------
test system: 931267-113-T-J1-PDC multicell spheroid viability; assay: Anticancer human tumor 931267-113-T-J1-PDC cell line growth inhibition [PI3K]; details: curve of first compound; second compound 3.16 µM;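 also: viability read 7 days after compound addition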
The reader will find reported IC50 values listed item by item below.
assay_readout: IC50 (µM)

>>> recorded_result("Cn1cnc2c(F)c(Nc3ccc(Br)cc3Cl)c(C(=O)NOCCO)cc21 + CC(Nc1ncnc2nc[nH]c12)c1cc2cccc(Cl)c2c(=O)n1-c1ccccc1")
0.0967
>>> recorded_result("CCCS(=O)(=O)Nc1ccc(F)c(C(=O)c2c[nH]c3ncc(-c4ccc(Cl)cc4)cc23)c1F + CC(Nc1ncnc2nc[nH]c12)c1cc2cccc(Cl)c2c(=O)n1-c1ccccc1")
5.92

----------
tested on: 931267-113-T-J1-PDC multicell spheroid viability; assay: Anticancer human tumor 931267-113-T-J1-PDC cell line growth inhibition [PI3K]; settings: second compound 0.01 µM; first compound 0.316 µM; stronger effect = lower value;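 also: viability read 7 days after compound addition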
The threshold is 90%. Values of viability, T/C beneath it are tagged condition met; values meeting or exceeding it are tagged condition not met.

>>> label("CCCS(=O)(=O)Nc1ccc(F)c(C(=O)c2c[nH]c3ncc(-c4ccc(Cl)cc4)cc23)c1F + CC(Nc1ccc2c(c1)OCCn1cc(N3C(=O)OCC3C(F)F)nc1-2)C(N)=O")
"condition not met"
>>> label("C[C@@H](NC(=O)c1ncnc(N)c1Cl)c1ncc(C(=O)Nc2cc(C(F)(F)F)c(Cl)cn2)s1 + CC(Nc1ccc2c(c1)OCCn1cc(N3C(=O)OCC3C(F)F)nc1-2)C(N)=O")
"condition not met"
>>> label("CC1(C)CCC(CN2CCN(c3ccc(C(=O)NS(=O)(=O)c4ccc(NCC5CCOCC5)c([N+](=O)[O-])c4)c(Oc4cnc5[nH]ccc5c4)c3)CC2)=C(c2ccc(Cl)cc2)C1 + COc1c(OCCCN2CCOCC2)ccc2c3n(c(=NC(=O)c4cnc(N)nc4)nc12)CCN3")
"condition not met"
>>> label("CNC(=O)c1ccc(N2C(=S)N(c3ccc(C#N)c(C(F)(F)F)c3)C(=O)C2(C)C)cc1F + COc1c(OCCCN2CCOCC2)ccc2c3n(c(=NC(=O)c4cnc(N)nc4)nc12)CCN3")
"condition not met"
>>> label("CC(Cn1ccc(-c2ccc(C#N)c(Cl)c2)n1)NC(=O)c1cc(C(C)O)[nH]n1 (stereo not given) + COc1c(OCCCN2CCOCC2)ccc2c3n(c(=NC(=O)c4cnc(N)nc4)nc12)CCN3")
"condition not met"
>>> label("C#Cc1c(F)ccc2cc(O)cc(-c3ncc4c(N5CC6CCC(C5)N6)nc(OCC56CCCN5CC(F)C6)nc4c3F)c12 (stereo not given) + CC(Nc1ccc2c(c1)OCCn1cc(N3C(=O)OCC3C(F)F)nc1-2)C(N)=O")
"condition met"
>>> label("CCCS(=O)(=O)Nc1ccc(F)c(C(=O)c2c[nH]c3ncc(-c4ccc(Cl)cc4)cc23)c1F + COc1c(OCCCN2CCOCC2)ccc2c3n(c(=NC(=O)c4cnc(N)nc4)nc12)CCN3")
"condition not met"
>>> label("C#Cc1c(F)ccc2cc(O)cc(-c3ncc4c(N5CC6CCC(C5)N6)nc(OCC56CCCN5CC(F)C6)nc4c3F)c12 (stereo not given) + COc1c(OCCCN2CCOCC2)ccc2c3n(c(=NC(=O)c4cnc(N)nc4)nc12)CCN3")
"condition met"
>>> label("CCN1CCN(Cc2ccc(Nc3ncc(F)c(-c4cc(F)c5nc(C)n(C(C)C)c5c4)n3)nc2)CC1 + CC(Nc1ccc2c(c1)OCCn1cc(N3C(=O)OCC3C(F)F)nc1-2)C(N)=O")
"condition not met"
>>> label("CC1(C)CCC(CN2CCN(c3ccc(C(=O)NS(=O)(=O)c4ccc(NCC5CCOCC5)c([N+](=O)[O-])c4)c(Oc4cnc5[nH]ccc5c4)c3)CC2)=C(c2ccc(Cl)cc2)C1 + CC(Nc1ccc2c(c1)OCCn1cc(N3C(=O)OCC3C(F)F)nc1-2)C(N)=O")
"condition not met"
>>> label("Cn1nccc1Nc1nccc(-c2ccn(C(CO)c3ccc(Cl)c(F)c3)c(=O)c2)n1 (stereo not given) + COc1c(OCCCN2CCOCC2)ccc2c3n(c(=NC(=O)c4cnc(N)nc4)nc12)CCN3")
"condition met"
>>> label("CC(C)NCC(C(=O)N1CCN(c2ncnc3c2C(C)CC3O)CC1)c1ccc(Cl)cc1 (stereo not given) + CC(Nc1ccc2c(c1)OCCn1cc(N3C(=O)OCC3C(F)F)nc1-2)C(N)=O")
"condition not met"
>>> label("CC(Cn1ccc(-c2ccc(C#N)c(Cl)c2)n1)NC(=O)c1cc(C(C)O)[nH]n1 (stereo not given) + CC(Nc1ccc2c(c1)OCCn1cc(N3C(=O)OCC3C(F)F)nc1-2)C(N)=O")
"condition not met"
>>> label("C[C@@H](NC(=O)c1ncnc(N)c1Cl)c1ncc(C(=O)Nc2cc(C(F)(F)F)c(Cl)cn2)s1 + COc1c(OCCCN2CCOCC2)ccc2c3n(c(=NC(=O)c4cnc(N)nc4)nc12)CCN3")
"condition not met"
>>> label("CC1(C)CCC(Nc2ncc(C(F)(F)F)c(-c3c[nH]c4c(P(C)(C)=O)c(C#N)ccc34)n2)CN1 (stereo not given) + CC(Nc1ccc2c(c1)OCCn1cc(N3C(=O)OCC3C(F)F)nc1-2)C(N)=O")
"condition met"
>>> label("CC(C)NCC(C(=O)N1CCN(c2ncnc3c2C(C)CC3O)CC1)c1ccc(Cl)cc1 (stereo not given) + COc1c(OCCCN2CCOCC2)ccc2c3n(c(=NC(=O)c4cnc(N)nc4)nc12)CCN3")
"condition not met"
>>> label("CC1(C)CCC(Nc2ncc(C(F)(F)F)c(-c3c[nH]c4c(P(C)(C)=O)c(C#N)ccc34)n2)CN1 (stereo not given) + COc1c(OCCCN2CCOCC2)ccc2c3n(c(=NC(=O)c4cnc(N)nc4)nc12)CCN3")
"condition met"
